Structural maintenance of chromosomes protein 1A (Homo sapiens, UniProt Q14683) data, read-out Kd; also: in the data inactive means no Kd found up to 30 µM
Sequence (Q14683 whole entry): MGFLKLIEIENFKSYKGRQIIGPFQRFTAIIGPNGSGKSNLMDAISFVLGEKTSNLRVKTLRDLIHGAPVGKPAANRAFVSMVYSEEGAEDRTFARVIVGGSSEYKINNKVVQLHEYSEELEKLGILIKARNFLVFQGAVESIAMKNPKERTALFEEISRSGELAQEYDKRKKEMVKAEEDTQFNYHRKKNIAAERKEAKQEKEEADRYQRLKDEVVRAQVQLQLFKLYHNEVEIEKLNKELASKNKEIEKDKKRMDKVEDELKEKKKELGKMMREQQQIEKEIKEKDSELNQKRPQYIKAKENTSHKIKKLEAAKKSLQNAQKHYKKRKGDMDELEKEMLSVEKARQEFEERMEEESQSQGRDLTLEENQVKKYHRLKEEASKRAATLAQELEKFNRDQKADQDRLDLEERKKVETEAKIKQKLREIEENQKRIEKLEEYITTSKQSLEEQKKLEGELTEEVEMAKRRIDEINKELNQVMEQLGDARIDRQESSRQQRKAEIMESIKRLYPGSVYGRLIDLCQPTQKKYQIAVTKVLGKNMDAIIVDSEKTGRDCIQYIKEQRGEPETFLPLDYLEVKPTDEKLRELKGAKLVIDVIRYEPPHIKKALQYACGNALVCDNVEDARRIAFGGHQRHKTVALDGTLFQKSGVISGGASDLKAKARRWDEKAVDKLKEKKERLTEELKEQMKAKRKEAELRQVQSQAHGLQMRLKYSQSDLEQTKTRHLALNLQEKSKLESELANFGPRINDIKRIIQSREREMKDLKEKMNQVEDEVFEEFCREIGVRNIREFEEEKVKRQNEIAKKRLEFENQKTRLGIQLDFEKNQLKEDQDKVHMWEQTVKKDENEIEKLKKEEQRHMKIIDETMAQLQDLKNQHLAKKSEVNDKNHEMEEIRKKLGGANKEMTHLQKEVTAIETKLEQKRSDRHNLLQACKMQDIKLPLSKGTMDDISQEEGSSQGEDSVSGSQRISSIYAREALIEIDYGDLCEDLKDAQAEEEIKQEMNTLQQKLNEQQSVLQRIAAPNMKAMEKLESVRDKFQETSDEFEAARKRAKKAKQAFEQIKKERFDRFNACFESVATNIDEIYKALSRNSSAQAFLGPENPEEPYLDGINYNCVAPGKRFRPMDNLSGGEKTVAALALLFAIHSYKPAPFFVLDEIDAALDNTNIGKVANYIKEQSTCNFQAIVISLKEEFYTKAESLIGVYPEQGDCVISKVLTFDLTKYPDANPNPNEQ
Activity calls are given as the source filed them.

Sample answers from the record:
- STRUCTURE_NOTATION: "O=c1sn(-c2cccc3ccccc23)c(=O)n1Cc1ccccc1"
  EXPERIMENTAL_VALUE: "> 30 µM (inactive)"
- STRUCTURE_NOTATION: "CO[C@H]1C[C@@H]2CC[C@@H](C)[C@@](O)(O2)C(=O)C(=O)N2CCCC[C@H]2C(=O)O[C@H]([C@H](C)C[C@@H]2CC[C@@H](OCCO)[C@H](OC)C2)CC(=O)[C@H](C)/C=C(\\C)[C@@H](O)[C@@H](OC)C(=O)[C@H](C)C[C@H](C)/C=C/C=C/C=C/1C"
  EXPERIMENTAL_VALUE: "> 30 µM (inactive)"

The record that follows has no Kd shown yet.
Look up Kd: `C[C@@H](Nc1cc(F)cc(F)c1)c1cc(C(=O)N(C)C)cc2c(=O)cc(N3CCOCC3)oc12`
> 30 µM (inactive)

---

# STUDY_TARGET: Protein kinase C alpha type (Homo sapiens, UniProt P17252); also: in the data inactive means no Kd found up to 30 µM
The source made the active and inactive calls.
ASSAY_METRIC: Kd

Example compounds with recorded Kd:
- COMPOUND: "OCCn1cc(-c2cnc3nnn(Cc4ccc5ncccc5c4)c3n2)cn1"
  ASSAY_METRIC: "Kd"
  EXPERIMENTAL_VALUE: "> 30 µM (inactive)"
- COMPOUND: "Cc1cc2c(F)c(Oc3ncnn4cc(OC[C@@H](C)OC(=O)[C@H](C)N)c(C)c34)ccc2[nH]1 [BRIVANIB ALANINATE]"
  ASSAY_METRIC: "Kd"
  EXPERIMENTAL_VALUE: "> 30 µM (inactive)"

Now consider a different compound.
Request the reported Kd associated with `CO[C@H]1C[C@@H]2CC[C@@H](C)[C@@](O)(O2)C(=O)C(=O)N2CCCC[C@H]2C(=O)O[C@H]([C@H](C)C[C@@H]2CC[C@@H](OCCO)[C@H](OC)C2)CC(=O)[C@H](C)/C=C(\C)[C@@H](O)[C@@H](OC)C(=O)[C@H](C)C[C@H](C)/C=C/C=C/C=C/1C`
> 30 µM (inactive)

---

# STUDY_TARGET: Ephrin type-A receptor 5 (Homo sapiens); also: in the data inactive means no Kd found up to 30 µM
# Sequence (P54756 whole entry): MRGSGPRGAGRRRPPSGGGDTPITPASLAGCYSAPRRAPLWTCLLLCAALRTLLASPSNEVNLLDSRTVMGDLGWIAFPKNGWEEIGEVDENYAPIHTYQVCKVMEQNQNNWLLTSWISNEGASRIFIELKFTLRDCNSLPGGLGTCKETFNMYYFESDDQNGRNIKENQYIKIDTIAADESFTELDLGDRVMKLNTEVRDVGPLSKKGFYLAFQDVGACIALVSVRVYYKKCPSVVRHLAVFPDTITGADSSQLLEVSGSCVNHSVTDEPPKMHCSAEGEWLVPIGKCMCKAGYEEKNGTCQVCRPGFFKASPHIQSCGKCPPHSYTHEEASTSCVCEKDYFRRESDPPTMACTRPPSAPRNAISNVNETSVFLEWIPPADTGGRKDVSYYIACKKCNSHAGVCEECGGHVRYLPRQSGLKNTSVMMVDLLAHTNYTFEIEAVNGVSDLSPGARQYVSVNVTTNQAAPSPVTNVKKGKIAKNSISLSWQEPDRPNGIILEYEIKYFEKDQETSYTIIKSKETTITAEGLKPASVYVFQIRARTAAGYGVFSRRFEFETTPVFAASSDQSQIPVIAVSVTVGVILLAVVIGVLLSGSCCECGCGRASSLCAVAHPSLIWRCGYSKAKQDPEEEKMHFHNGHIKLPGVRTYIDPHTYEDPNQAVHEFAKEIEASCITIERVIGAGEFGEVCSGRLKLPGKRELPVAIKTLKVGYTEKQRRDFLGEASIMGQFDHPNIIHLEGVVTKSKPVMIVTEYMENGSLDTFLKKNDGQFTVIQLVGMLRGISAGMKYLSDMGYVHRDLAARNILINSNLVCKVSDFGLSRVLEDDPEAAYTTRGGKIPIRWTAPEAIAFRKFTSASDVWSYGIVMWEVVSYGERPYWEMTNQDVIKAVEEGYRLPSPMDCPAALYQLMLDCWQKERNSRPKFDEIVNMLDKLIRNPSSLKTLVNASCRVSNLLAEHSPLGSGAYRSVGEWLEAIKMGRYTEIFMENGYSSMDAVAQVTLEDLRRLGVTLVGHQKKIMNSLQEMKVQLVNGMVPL
Active and inactive are the calls of the source.
Mark one answer only. Choices: active, inactive

- COMPOUND: "CC(C)Nc1cc(-c2c[nH]c(C(=O)N[C@H](CO)c3cccc(Cl)c3)c2)c(Cl)cn1"
  ASSIGNED_LABEL: "inactive"
- COMPOUND: "OCCn1cc(-c2cnc3nnn(Cc4ccc5ncccc5c4)c3n2)cn1"
  ASSIGNED_LABEL: "inactive"
- COMPOUND: "CN(C)C(=O)c1cc2cnc(Nc3ccc(N4CCNCC4)cn3)nc2n1C1CCCC1"
  ASSIGNED_LABEL: "inactive"
- COMPOUND: "CCn1c(=O)c(-c2cc[nH]n2)cc2c(C)nc(N)nc21"
  ASSIGNED_LABEL: "inactive"
- COMPOUND: "C1=C/COCc2cc(ccc2OCCN2CCCC2)Nc2nccc(n2)-c2cccc(c2)COC/1"
  ASSIGNED_LABEL: "inactive"
- COMPOUND: "CCS(=O)(=O)N1CC(CC#N)(n2cc(-c3ncnc4[nH]ccc34)cn2)C1"
  ASSIGNED_LABEL: "inactive"
- COMPOUND: "COc1cc(N2CCC(N3CCN(C)CC3)CC2)ccc1Nc1ncnc(Nc2ccccc2S(=O)(=O)C(C)C)n1"
  ASSIGNED_LABEL: "inactive"
- COMPOUND: "O=C(Nc1cccc(Cl)c1)Nc1ncc(CCNc2ncnc3ccsc23)s1"
  ASSIGNED_LABEL: "inactive"

Which outcome did this test record for the compound `CC(=O)Nc1cccc(-n2c(=O)n(C3CC3)c(=O)c3c(Nc4ccc(I)cc4F)n(C)c(=O)c(C)c32)c1` ?
inactive

Tell me the assay call for `O=C(O)[C@]1(Cc2cccc(Nc3nccs3)n2)CC[C@@H](Oc2cccc(Cl)c2F)CC1` please.
inactive

Any idea what this test logged for O=C(Nc1ccc(-c2ccnc(Nc3ccc(N4CCOCC4)cc3)n2)cc1)C1CCCN1 (configuration not stated) ?
inactive

Test call, this compound: `Cn1cc(-c2ccc3nnc(C(F)(F)c4ccc5ncccc5c4)n3n2)cn1`
inactive

Outcome? `O=c1sn(-c2cccc3ccccc23)c(=O)n1Cc1ccccc1`
inactive

Record lookup: outcome of this test for `COc1cc2nccc(Oc3ccc(NC(=O)NC4CC4)c(Cl)c3)c2cc1C(N)=O` ?
inactive

Hi, sorry to bother you, what did the test record for `CNS(=O)(=O)Nc1nccc(Cc2c(C)c3ccc(Oc4ncccn4)cc3oc2=O)c1F` ?
inactive

---

Answer each item with its documented Kd.
# STUDY_TARGET: Serine/threonine-protein kinase D2 (Homo sapiens); also: in the data inactive means no Kd found up to 30 µM
# Sequence (Q9BZL6 whole entry): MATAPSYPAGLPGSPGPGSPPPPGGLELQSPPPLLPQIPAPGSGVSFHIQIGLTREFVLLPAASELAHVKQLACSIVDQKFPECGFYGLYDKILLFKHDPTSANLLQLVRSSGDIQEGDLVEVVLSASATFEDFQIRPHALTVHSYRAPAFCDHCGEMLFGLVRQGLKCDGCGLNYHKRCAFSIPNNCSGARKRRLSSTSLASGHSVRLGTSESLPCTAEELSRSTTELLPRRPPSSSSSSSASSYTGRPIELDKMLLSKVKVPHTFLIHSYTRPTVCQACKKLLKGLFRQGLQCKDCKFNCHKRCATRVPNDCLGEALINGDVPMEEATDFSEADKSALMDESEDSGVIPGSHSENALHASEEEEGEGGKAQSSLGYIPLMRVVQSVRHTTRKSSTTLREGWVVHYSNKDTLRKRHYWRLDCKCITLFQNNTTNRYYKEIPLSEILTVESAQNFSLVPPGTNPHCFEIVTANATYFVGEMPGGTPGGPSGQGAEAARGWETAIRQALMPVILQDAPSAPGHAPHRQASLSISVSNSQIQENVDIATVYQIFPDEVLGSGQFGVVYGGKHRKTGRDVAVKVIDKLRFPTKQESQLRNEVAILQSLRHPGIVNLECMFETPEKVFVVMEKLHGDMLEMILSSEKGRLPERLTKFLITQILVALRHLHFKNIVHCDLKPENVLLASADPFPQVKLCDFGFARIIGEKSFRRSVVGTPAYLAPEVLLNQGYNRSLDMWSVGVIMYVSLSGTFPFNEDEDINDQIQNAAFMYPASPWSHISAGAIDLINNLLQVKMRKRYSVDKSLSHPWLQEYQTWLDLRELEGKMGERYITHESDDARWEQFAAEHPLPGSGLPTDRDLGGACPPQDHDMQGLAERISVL
Calls of active or inactive are those of the source.

- STRUCTURE_NOTATION: "O=c1sn(-c2cccc3ccccc23)c(=O)n1Cc1ccccc1"
  STUDY_TARGET: "Serine/threonine-protein kinase D2 (Homo sapiens)"
  Kd: "> 30 µM (inactive)"
- STRUCTURE_NOTATION: "O=C(O)[C@]1(Cc2cccc(Nc3nccs3)n2)CC[C@@H](Oc2cccc(Cl)c2F)CC1"
  STUDY_TARGET: "Serine/threonine-protein kinase D2 (Homo sapiens)"
  Kd: "> 30 µM (inactive)"

Continue with the next molecule.
Reported Kd for `O=C(c1ccc(F)c(F)c1Nc1ccc(I)cc1F)N1CC(O)([C@@H]2CCCCN2)C1` : what is it?
> 30 µM (inactive)

---

# STUDY_TARGET: Dual specificity mitogen-activated protein kinase kinase 3 (Homo sapiens); also: in the data inactive means no Kd found up to 30 µM
# Sequence (P46734 whole entry): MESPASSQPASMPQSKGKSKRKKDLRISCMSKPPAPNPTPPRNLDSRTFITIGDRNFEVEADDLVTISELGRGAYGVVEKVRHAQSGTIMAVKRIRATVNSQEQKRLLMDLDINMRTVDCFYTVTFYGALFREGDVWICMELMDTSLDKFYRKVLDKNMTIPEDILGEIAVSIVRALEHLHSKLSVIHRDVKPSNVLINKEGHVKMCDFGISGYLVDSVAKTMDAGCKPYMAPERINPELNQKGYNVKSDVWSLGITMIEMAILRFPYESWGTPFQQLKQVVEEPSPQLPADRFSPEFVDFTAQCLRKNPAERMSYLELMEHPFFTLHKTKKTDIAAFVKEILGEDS
The source made the active and inactive calls.
ASSAY_METRIC: Kd

Reference set, count: 2
- MOLECULE: "COC(=O)[C@@]1(O)C[C@H]2O[C@]1(C)n1c3ccccc3c3c4c(c5c6ccccc6n2c5c31)C(=O)NC4 [K-252A]"
  Kd: "> 30 µM (inactive)"
- MOLECULE: "CNC(=O)CN1CCC(Oc2cc3c(Nc4cccc(Cl)c4F)ncnc3cc2OC)CC1"
  Kd: "> 30 µM (inactive)"

Below are some molecules; for each one, tell me its Kd.
1. CNC(=O)c1cc(Oc2ccc(NC(=O)Nc3ccc(Cl)c(C(F)(F)F)c3)c(F)c2)ccn1
2. O=C(c1ccc(F)c(F)c1Nc1ccc(I)cc1F)N1CC(O)([C@@H]2CCCCN2)C1

1: > 30 µM (inactive); 2: > 30 µM (inactive)
